All figures here come from PubChem BioAssay (NCATS).

# targetDesc: Cytochrome P450 2C9 (Homo sapiens)
# assaySummary: qHTS Assay for Inhibitors and Substrates of Cytochrome P450 2C9 (AID 883); note: nearly all actives have a fitted effect of over 60% in size
# runParameters: recombinant CYP2C9, luciferin-H luminescence, 60 min; series mostly up to 11.4 µM
Inconclusive results are not listed. The source made the active and inactive calls. Calls come from the whole dose curve; as a rule, active = well fitted inhibition curve with a large enough effect; inconclusive = small, poorly fitted or top-dose-only effect; inactive = no such curve, though single readings can be large or run the other way.
Classes used: class 1 for active, class 0 for inactive

compound	cat
CC(=O)Nc1ccc(C2C(C)CCC3C(=O)N4C(CCC(C)[C@@H]4c4ccc(NC(C)=O)cc4)C(=O)N32)cc1 (stereo not given in full)	class 0
O=C1OC(C2=CCCCC2)=NC12CC2	class 0
COc1ccc(O[C@H]2C=C[C@@H](c3ccccc3)O[C@H]2CO/N=C2/c3cc(OC)ccc3O[C@@H](c3cccc(OC)c3)[C@H]2O)cc1	class 1
C=C(C)C(O)/C=C/CCCCCCC (stereo not given)	class 0
CC(C)=NOCc1cccc(-c2cc(-c3ccccc3)no2)c1	class 1
C=C(C)C(O)/C=C/C=C/c1ccccc1 (stereo not given)	class 0
CO/N=C\c1ccc(C(=O)N2[C@H](c3ccc(C)cc3)[C@@H](C)CC[C@H]2C(=O)OC)cc1	class 1
C[C@@]12CCC3c4ccc(OC5C=CC(c6ccccc6)OC5CO)cc4CCC3C1CCC2=O (stereo not given in full)	class 0
CC(C)CCN1CCc2nc(-c3ccccc3)c3c(c2C1)COC(C)C3 (stereo not given)	class 0
C=CCOC(=O)C(C(C)=O)C(NC(=O)OC)c1cccs1 (stereo not given)	class 0

###

# assaySummary: qHTS screen for small molecules that inhibit ELG1-dependent DNA repair: Hit Confirmation with MMS Viability (AID 624251);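 note: ELG1-luc HEK293T cells co-treated with 10 µM MMS; viability read 16 h after compound addition; nearly all actives have a fitted effect of over 60% in size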; note: potency is the fitted concentration of half-maximal effect
# runParameters: Cell viability with MMS; series mostly up to 46.1 µM
This is one part of the list. Results filed as inconclusive are left out. Calls of active or inactive are those of the source. The call rests on the fitted dose curve; in most records, active means well fitted cell-killing curve with a large enough effect; inconclusive means small, poorly fitted or top-dose-only effect, or effect the other way; inactive means flat fitted curve, though single readings scatter.

molecule	Potency
Cc1ccc(N(Cc2ccc(C(=O)Nc3ccccc3C(=O)NCc3ccco3)cc2)S(C)(=O)=O)cc1C	inactive
Cc1ccc(Nc2nc(N3CCOCC3)nc(N3CCOCC3)n2)cc1Cl	inactive
CN(C)c1ccnc2sc3c(=O)n(Cc4ccccc4)cnc3c12	inactive
OCCCNc1nccc(-c2cc(Nc3cccc(Cl)c3)ncn2)n1	2.5 µM (active)
COc1ccc(NC(=O)C2CCC(CNc3c(N4CCCCC4)c(=O)c3=O)CC2)c(OC)c1 (stereo not given)	inactive
COc1ccc(-c2nn(-c3ccccc3)cc2/C=C\C(=O)N2CCOCC2)cc1[N+](=O)[O-]	inactive
COc1ccc(NC(C)=O)cc1NC(=O)CN1CCN(C2c3ccccc3-c3ccccc32)CC1	inactive
CS(=O)(=O)c1ccc2nc(NC(=O)C3CCCCC3)sc2c1	inactive
Nc1nnc(SCC(=O)Nc2ccc3nc(SCC(=O)Nc4ccccc4)sc3c2)s1	5.6 µM (active)
COc1ccc(NS(=O)(=O)c2ccc(Oc3c(C#N)cccc3C#N)cc2)cc1	4.45 µM (active)

###

# Test system: CP269
# assaySummary: qHTS profiling for inhibitors of Plasmodium falciparum proliferation (AID 504749);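 note: 0% = DMSO vehicle and full inhibition = artemisinin control; nearly all actives have a fitted effect of over 60% in size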
# runParameters: P. falciparum in erythrocytes, SYBR Green DNA, 72 h; series mostly up to 28.7 µM
Records with an inconclusive call do not appear. Calls of active or inactive are those of the source. Calls follow the shape of the dose curve; as a rule, active = well fitted inhibition curve with a large enough effect; inconclusive = small, poorly fitted or top-dose-only effect; inactive = flat fitted curve, though single readings scatter. Peptide text beside a SMILES is read from it.
measuredAttribute: outcome

compound	observedMeasurement
CC(C)C(NC(=O)C(CC(=O)O)NC(=O)C(CCCCN)NC(=O)C(N)CCCN=C(N)N)C(=O)NC(Cc1ccc(O)cc1)C(=O)O (stereo not drawn) (H-RKDVY-OH; configuration not given here)	inactive
CCC(C)C1NC(=O)C(Cc2ccc(O)cc2)NC(=O)C(N)CSSCC(C(=O)N2CCCC2C(=O)NC(CC(C)C)C(=O)NCC(N)=O)NC(=O)C(CC(N)=O)NC(=O)C(CCC(N)=O)NC1=O (stereo not drawn)	inactive
CC(=O)OCC1=C(C(=O)O)N2C(=O)C(NC(=O)Cc3ccccc3)C2SC1 (stereo not drawn)	inactive
